We begin with IC50 values for Lysine-specific demethylase 5B (Homo sapiens, UniProt Q9UGL1), as collected from the published literature.

Examples from the recorded data:
- entry smiles: "Cc1cc(Br)ccc1COc1ccnn1-c1cc(C(=O)O)ccn1"
  IC50: "100 to 1000 nM"
- entry smiles: "CCc1cc(C#N)ccc1COc1ccnn1-c1cc(C(=O)O)ccn1"
  IC50: "< 100 nM"

Task: Value lookup for IC50; key = O=C(O)c1c(NCc2cccc(OC(F)(F)F)c2)ccc2nccn12
Result: > 1000 nM

Task: Value lookup for IC50; key = CCOc1cc(Cl)ccc1COc1ccnn1-c1cc(C(=O)O)ccn1
Result: < 100 nM

Task: Value lookup for IC50; key = CN(C)c1cccc(Oc2nc(O)c3ccncc3n2)c1
Result: ≤ 100 nM

###

We begin with IC50 values for UniProt:Q9UGL1, as collected from the published literature.

Examples from the recorded data:
- molecule: "Oc1nc(OCC2CCOc3ccccc32)nc2cnccc12 (centres unmarked)"
  target or test system: "UniProt:Q9UGL1"
  IC50: "100 to 1000 nM"
- molecule: "Nc1ccccc1CNc1cnccc1C(=O)O"
  target or test system: "UniProt:Q9UGL1"
  IC50: "≤ 100 nM"
- molecule: "CCC(c1ccccc1)n1cnc(-c2cc(-c3nn[nH]n3)ccn2)c1 (centres unmarked)"
  target or test system: "UniProt:Q9UGL1"
  IC50: "≤ 100 nM"
- molecule: "O=C(O)c1c(NCc2ccccc2-c2ccccc2)ccc2nccn12"
  target or test system: "UniProt:Q9UGL1"
  IC50: "500 to 1000 nM"
- molecule: "CCN(CC)C(=O)CCN(CCO)Cc1cc(C(=O)O)ccn1"
  target or test system: "UniProt:Q9UGL1"
  IC50: "< 250 nM"

Task: Which measured IC50 belongs to COc1c(F)cc(CNc2ccc3nccn3c2C(=O)O)cc1F , tested on UniProt:Q9UGL1?
Result: > 1000 nM

Task: Which measured IC50 belongs to Cn1cnc(-c2cc(C(=O)O)ccn2)c1-c1ccc(Cl)c(C(F)(F)F)c1 , tested on UniProt:Q9UGL1?
Result: ≤ 100 nM

Task: Which measured IC50 belongs to N#Cc1cccc(CNc2ccc3nccn3c2C(=O)O)c1 , tested on UniProt:Q9UGL1?
Result: > 1000 nM

###

pIC50: −log10 of the molar value.
We begin with pIC50 values for Lysine-specific demethylase 5B (Homo sapiens, UniProt Q9UGL1), as collected from the published literature.

Task: Value lookup for pIC50; key = O=C(O)c1ccnc(-n2nccc2OCc2ccc(Cl)cc2)c1
Result: > 7.00

Task: Value lookup for pIC50; key = O=C(O)c1c(NCc2ccc(Cl)c(C(F)(F)F)c2)ccc2nccn12
Result: 6.00 to 6.30

Task: Value lookup for pIC50; key = O=C(O)c1ccnc(-c2cn(C3Cc4ccccc4C3)cn2)c1
Result: ≥ 7.00

Task: Value lookup for pIC50; key = COc1cccc(COc2ccnn2-c2cc(C(=O)O)ccn2)c1
Result: > 7.00

Task: Value lookup for pIC50; key = CC(N[C@@H](C)C(=O)NCc1ccncc1)c1cc(C(=O)O)ccn1 (some centres unmarked)
Result: < 5.60

Task: Value lookup for pIC50; key = C=CCN(CC=C)C(=O)[C@H](CCCCN(C)C(C)=O)NCc1cc(C(=O)O)ccn1
Result: 5.60 to 6.60

###

pIC50: −log10 of the molar value.
We begin with pIC50 values for Lysine-specific demethylase 5B (Homo sapiens, UniProt Q9UGL1), as collected from the published literature.

Task: Value lookup for pIC50; key = N#CCC(=O)N1CCC[C@@H](n2cc(Oc3nc(O)c4ccncc4n3)cn2)C1
Result: ≥ 7.00

Task: Value lookup for pIC50; key = COc1ccc(F)c(CNc2ccc3nccn3c2C(=O)O)c1F
Result: < 6.00

Task: Value lookup for pIC50; key = COc1ccc(Oc2nc(O)c3ccncc3n2)cc1
Result: ≥ 7.00

Task: Value lookup for pIC50; key = CC(C)CCn1cc(Oc2nc(O)c3ccnc(-c4cn(C)cn4)c3n2)cn1
Result: ≥ 7.00

Task: Value lookup for pIC50; key = O=C(O)c1ccnc(-n2nccc2OCc2cccc(O)c2)c1
Result: > 7.00

Task: Value lookup for pIC50; key = O=C(O)c1ccnc(-c2cn(CCN3CCc4cc(F)ccc43)cn2)c1
Result: ≥ 7.00

Task: Value lookup for pIC50; key = Oc1nc(OC2CCOc3ccccc32)nc2cnccc12 (stereo not shown)
Result: 6.00 to 7.00

Task: Value lookup for pIC50; key = C=CCN(CC=C)C(=O)[C@@H](CCCCN(CCC)C(=O)OC(C)(C)C)NCc1cc(C(=O)O)ccn1
Result: < 5.60

Task: Value lookup for pIC50; key = Cc1cc(Cl)ccc1COc1ccnn1-c1cc(C(=O)O)ccn1
Result: > 7.00

Task: Value lookup for pIC50; key = Oc1nc(OCc2cccc3ccccc23)nc2cnccc12
Result: 5.00 to 6.00

Task: Value lookup for pIC50; key = COc1ccc(Cl)cc1CNc1ccc2nc(C)cn2c1C(=O)O
Result: < 6.00

Task: Value lookup for pIC50; key = CC(O)c1cc(C(=O)O)n2ccnc2c1 (stereo not shown)
Result: < 6.00

Task: Value lookup for pIC50; key = Cn1cnc(-c2nccc3c(O)nc(OCCCC(F)(F)F)nc23)c1
Result: ≥ 7.00

Task: Value lookup for pIC50; key = Cn1cnc(-c2nccc3c(O)nc(OCc4ccc(Cl)cc4)nc23)c1
Result: ≥ 7.00

###

We begin with IC50 values for Lysine-specific demethylase 5B (Homo sapiens), as collected from the published literature.

Examples from the recorded data:
- molecule: "Cn1cnc(-c2nccc3c(O)nc(OCC(C)(C)O)nc23)c1"
  measurement: "100 to 1000 nM"
- molecule: "CCn1ncc2ccc(Oc3nc(O)c4ccnc(-c5cn(C)cn5)c4n3)cc21"
  measurement: "≤ 100 nM"
- molecule: "O=C(O)c1ccnc(-n2nccc2OCc2ccc(Cl)c(F)c2)c1"
  measurement: "< 100 nM"
- molecule: "O=C(O)c1cc(Oc2ccc3ccncc3c2)cc2nccn12"
  measurement: "> 1000 nM"
- molecule: "COc1cc(Cl)ccc1CNc1ccc2nccn2c1C(=O)O"
  measurement: "≤ 500 nM"
- molecule: "CCNC(=O)C1CCN(Cc2cc(C(=O)O)ccn2)CC1"
  measurement: "> 2500 nM"
- molecule: "O=C(O)c1c(NCc2c(F)cc(F)cc2F)ccc2nccn12"
  measurement: "500 to 1000 nM"
- molecule: "O=C(O)c1ccnc(-n2nccc2-c2ccccc2)c1"
  measurement: "1000 to 10000 nM"
- molecule: "CN1CCC(n2cnc(-c3cc(C(=O)O)ccn3)c2)CC1"
  measurement: "≤ 100 nM"
- molecule: "Oc1nc(OC(c2ccccc2)C(F)(F)F)nc2cnccc12 (stereo not shown)"
  measurement: "100 to 1000 nM"

Task: Value lookup for IC50; key = CC(=O)N1CCC[C@H](n2cc(Oc3nc(O)c4ccncc4n3)cn2)C1
Result: ≤ 100 nM

Task: Value lookup for IC50; key = O=C(O)c1ccncc1Nc1nn(C2CCCC2)c2ccc(F)cc12
Result: < 100 nM

Task: Value lookup for IC50; key = O=C(O)c1ccncc1Nc1nn(CCC(F)(F)F)c2ccc(Cl)cc12
Result: < 100 nM

Task: Value lookup for IC50; key = Cn1cnc(-c2cc(C(=O)O)ccn2)c1-c1ccc(Cl)c(F)c1
Result: ≤ 100 nM

Task: Value lookup for IC50; key = O=C(O)c1cnc2cc(Oc3ccccc3)ccn12
Result: > 1000 nM

Task: Value lookup for IC50; key = Oc1nc(Oc2cnn([C@@H]3CCN(Cc4ccccc4)C3)c2)nc2cnccc12
Result: ≤ 100 nM

Task: Value lookup for IC50; key = O=C(O)c1cnc2cc(C(O)c3ccccc3)ccn12 (stereo not shown)
Result: > 1000 nM

Task: Value lookup for IC50; key = CCN1CCC[C@H](CNCc2cc(C(=O)O)ccn2)C1=O
Result: < 250 nM

Task: Value lookup for IC50; key = CN(C)CCn1cnc(-c2cc(C(=O)O)ccn2)c1
Result: ≤ 100 nM

Task: Value lookup for IC50; key = Cc1cc(O)n(-c2cc(C(=O)O)ccn2)n1
Result: < 100 nM

Task: Value lookup for IC50; key = O=C(O)c1ccnnc1NCc1ccccc1
Result: 100 to 1000 nM

Task: Value lookup for IC50; key = Cn1cnc(-c2cc(C(=O)O)ccn2)c1-c1cccc(Cl)c1
Result: ≤ 100 nM

Task: Value lookup for IC50; key = O=C(O)c1ccnc(-n2nccc2OCc2ccc(C3CC3)c(Cl)c2)c1
Result: 100 to 1000 nM

Task: Value lookup for IC50; key = O=C(O)c1ccnc(-c2cn(CCc3cccc4ccccc34)cn2)c1
Result: ≤ 100 nM

Task: Value lookup for IC50; key = Cc1ccc(Cl)c(CNc2ccc3nccn3c2C(=O)O)c1F
Result: > 1000 nM
